measuredOn: CD3 epsilon/gamma heterodimer (Homo sapiens, UniProt P07766;P09693 P07766:23-126,P09693:23-116)
Sequence (P07766 23-126, chain 1 of 2): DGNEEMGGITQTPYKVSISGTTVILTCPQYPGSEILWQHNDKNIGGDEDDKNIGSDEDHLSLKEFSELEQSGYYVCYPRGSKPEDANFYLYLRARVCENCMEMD
Sequence (P09693 23-116, chain 2 of 2): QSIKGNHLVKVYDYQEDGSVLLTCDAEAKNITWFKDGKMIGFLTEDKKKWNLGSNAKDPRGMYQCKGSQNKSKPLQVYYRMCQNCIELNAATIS
methodDescription: SPR; kinetic, DPBS
runParameters: tags: C-terminal human IgG1 Fc fusion, AcroBiosystems; chain copies: heterodimer 1:1 (inferred); label: 5'-biotin-TEG
outcomeMeasure: pKd
Please note pKd is a logarithmic value: minus log10 of concentration in mol/L. Answer with that number alone.

IN: Entry GAUGAUAUCUUUAAUAUCAAUUGCAGCGAUUCUUGUUUGAGAAUAAAC (ssRNA, 2'-F pyrimidines) [ARACD3-3130001] : reported pKd = ?
OUT: 6.48
